method.summary: small-molecule binders of probe aNOTCH2, primary screen, biochemical, small-molecule microarray, 635/667 nm fluorescence (AID 1121);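 also: score merges feature fluorescence read at 667 nm with its signal to noise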
cond: higher = more signal
property.label: composite z-score

| molecule | value.measured |
| --- | --- |
| CO[C@H]1O[C@H](CO)[C@@H](OC(=O)Nc2ccccc2)[C@H](OC(=O)Nc2ccccc2-c2ccccc2)[C@H]1OC(=O)Nc1ccccc1-c1ccccc1 | -0.103 |
| COCCOC(=O)N1C(=O)[C@@]2(c3cc(C#CCNC(N)=O)ccc31)[C@H](C(=O)NC[C@H](O)c1ccccc1)[C@H]1C(=O)O[C@H](c3ccccc3)[C@H](c3ccccc3)N1[C@@H]2c1ccc(O)cc1 | -0.104 |
| C=CCNC(=O)[C@H]1[C@@H]2C(=O)O[C@@H](c3ccccc3)[C@@H](c3ccccc3)N2[C@@H](c2ccccc2OCCO)[C@]12C(=O)N(C(=O)OCCOC)c1ccc(C#CCCO)cc12 | 0.399 |
| COc1ccc(C(=O)Nc2cccc(CN3C(=O)[C@@]4(O[C@@H](CCO)[C@H]([Si](C)(C)c5ccc(OC)cc5)[C@H]4C)c4ccccc43)c2)cc1 | -0.14 |
| CC(C)C(CO)N1C(=O)[C@@H]2C3C(=O)OCCC/C=C\[C@H]3OC23C=CCN(C(C)C)C(=O)[C@@H]13 (stereo partly specified) | -0.168 |
| COc1ccc(C#Cc2ccc3c(c2)[C@]2(C(=O)N3)[C@H](c3ccc(O)cc3)N3[C@H](c4ccccc4)[C@H](c4ccccc4)OC(=O)[C@H]3[C@@H]2C(N)=O)cc1 | -0.147 |
